Would you kindly list Postemergence herbicidal rating, GALAP for each of these compounds?
- Test system: GALAP (Galium aparine)
- protocol-text: Postemergence herbicidal evaluation
- Type: in vivo
- condition-label: rate 0.1250 kg/ha
Please give only the number in your answer, with no unit.

Prompt line: I'd like to know its Postemergence herbicidal rating, GALAP. The compound in question is Cn1c(C(F)(F)F)cc(=O)n(-c2ccc3snc(-c4ccccn4)c3c2)c1=O [Compound 9]
Response line: 5.0

Prompt line: Next up: Cc1nnc(-c2nsc3ccc(-n4c(=O)cc(C(F)(F)F)n(C)c4=O)cc23)s1 [Compound 17]
Response line: 6.0

Prompt line: What would you report for Cn1cccc1-c1nsc2ccc(-n3c(=O)cc(C(F)(F)F)n(C)c3=O)cc12 [Compound 6] ?
Response line: 4.0

Prompt line: Repeat with COC(=O)COc1ccsc1-c1nsc2ccc(-n3c(=O)cc(C(F)(F)F)n(C)c3=O)cc12 [Compound 22]
Response line: 1.0

Prompt line: What do you get for Cc1ccc(-c2nsc3ccc(N4C(=O)C5=C(CCCC5)C4=O)cc23)s1 [Compound 20] ?
Response line: 1.0
